Values from patent USRE39634E1

Provide the reported IC50 of each item.
SYSTEM_TESTED: human FAAH (Homo sapiens, UniProt O00519)
Sequence (O00519 1-579): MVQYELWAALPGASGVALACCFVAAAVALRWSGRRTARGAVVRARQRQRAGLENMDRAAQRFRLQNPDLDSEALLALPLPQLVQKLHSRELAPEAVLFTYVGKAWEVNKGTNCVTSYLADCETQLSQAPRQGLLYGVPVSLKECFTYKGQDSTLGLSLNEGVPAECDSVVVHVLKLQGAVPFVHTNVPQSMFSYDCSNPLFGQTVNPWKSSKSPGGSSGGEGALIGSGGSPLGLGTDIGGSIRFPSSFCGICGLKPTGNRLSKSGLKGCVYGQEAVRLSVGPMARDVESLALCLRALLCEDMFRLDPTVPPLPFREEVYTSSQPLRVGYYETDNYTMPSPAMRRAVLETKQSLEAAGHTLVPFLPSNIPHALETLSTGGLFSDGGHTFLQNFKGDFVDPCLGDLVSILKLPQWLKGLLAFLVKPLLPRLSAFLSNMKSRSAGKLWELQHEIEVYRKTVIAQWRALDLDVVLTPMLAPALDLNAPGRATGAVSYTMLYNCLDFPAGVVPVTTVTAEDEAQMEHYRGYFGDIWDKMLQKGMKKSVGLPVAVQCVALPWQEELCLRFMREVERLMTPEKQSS

Return reported IC50 values for all items listed beneath this line.
1. Cc1nc(-c2ccccc2)c(-c2ccccc2)n1CCCCCNC(=O)Oc1ccc(Cl)cc1
2. COc1cccc(OC)c1OC(=O)NCCCCCCCn1c(C)nc(-c2ccccc2)c1-c1ccccc1
3. Cc1nc(-c2ccccc2)c(-c2ccccc2)n1CCCCCCCNC(=O)Oc1ccc(F)cc1
4. Cc1nc(-c2ccccc2)c(-c2ccccc2)n1CCCCCCNC(=O)Oc1ccc(C#N)cc1
5. Cc1nc(-c2ccccc2)c(-c2ccccc2)n1CCCCCCNC(=O)O/N=C/c1cccnc1
6. Cc1nc(-c2ccccc2)c(-c2ccccc2)n1CCCCCCNC(=O)Oc1ccccc1

1: 10 to 100 nM; 2: 100 to 1000 nM; 3: 10 to 100 nM; 4: 10 to 100 nM; 5: 10 to 100 nM; 6: < 10 nM

Hi, could you look up IC50 for each item in my list?
1. Cc1nc(-c2ccccc2)c(-c2ccccc2)n1CCCCCCCNC(=O)Oc1ccc(F)cc1F
2. Cc1nc(-c2ccccc2)c(-c2ccccc2)n1CCOc1ccc(NC(=O)Oc2ccc(F)c(F)c2)cc1

1: 10 to 100 nM; 2: 1000 to 10000 nM
